target: Pim-1 (Homo sapiens, UniProt P11309); construct: His6-labelled recombinant full-length human Pim-1, Pim-2 or Pim-3 protein; His6; made in house; assay: TR-FRET assay, Pim-1 kinase (phosphorylation of Bad Ser112); format: biochemical; conditions: TR-FRET; ATP 40 μM; read-out: IC50 Pim1
Sequence (P11309 whole entry): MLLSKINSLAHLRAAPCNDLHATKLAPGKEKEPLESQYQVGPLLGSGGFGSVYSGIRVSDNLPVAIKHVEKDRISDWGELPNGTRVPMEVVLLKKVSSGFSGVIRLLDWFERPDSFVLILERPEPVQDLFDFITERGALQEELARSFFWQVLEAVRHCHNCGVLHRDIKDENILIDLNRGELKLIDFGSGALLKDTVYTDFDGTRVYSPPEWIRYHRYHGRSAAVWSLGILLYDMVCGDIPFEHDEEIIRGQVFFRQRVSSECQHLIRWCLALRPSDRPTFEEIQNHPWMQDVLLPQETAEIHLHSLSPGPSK
metric: IC50

molecule=Cc1cc(N2CCNCC2)ncc1-c1cnc2[nH]c3cnc(-c4cccnc4)cc3c2c1 metric=IC50 recordedmeasurement="1 to 100 nM"
molecule=CN(C(=O)c1c(F)cnc2[nH]c3cnc(-c4cccnc4)cc3c12)c1ccccc1 metric=IC50 recordedmeasurement="100 to 1000 nM"
molecule=NCCCOc1ccc(-c2cnc3[nH]c4cnc(-c5cccnc5)cc4c3c2)cc1 metric=IC50 recordedmeasurement="1 to 100 nM"
molecule="CC(COc1ccc(-c2c(F)cnc3[nH]c4cnc(-c5cccnc5)cc4c23)cc1)CN(C)C (stereo not drawn)" metric=IC50 recordedmeasurement="1 to 100 nM"

Incoming: Can you look up the measured IC50 of `COc1ccnc2[nH]c3cnc(-c4cccnc4)cc3c12` for me?
Outgoing: 1 to 100 nM

Incoming: Recorded IC50 for `CN1CCN(c2cnc3[nH]c4cnc(-c5cccnc5)cc4c3c2)CC1` , please?
Outgoing: 1 to 100 nM

Incoming: Tell me the measured IC50 of `CCOC(=O)c1cnc2[nH]c3cnc(-c4cccnc4)cc3c2c1` , please.
Outgoing: 1 to 100 nM

Incoming: Which measured IC50 value corresponds to `CC(C)(O)c1cnc2[nH]c3cnc(-c4cccnc4)cc3c2c1` ?
Outgoing: 1000 to 5000 nM

Incoming: Form field: reported IC50 of `Fc1cnc2[nH]c3cnc(-c4cccnc4)cc3c2c1-c1ccc2cc[nH]c2c1`
Outgoing: 1 to 100 nM
